# TARGET OF ASSAY: Transient receptor potential cation channel subfamily V member 1 (Homo sapiens)
# Sequence (Q8NER1 whole entry): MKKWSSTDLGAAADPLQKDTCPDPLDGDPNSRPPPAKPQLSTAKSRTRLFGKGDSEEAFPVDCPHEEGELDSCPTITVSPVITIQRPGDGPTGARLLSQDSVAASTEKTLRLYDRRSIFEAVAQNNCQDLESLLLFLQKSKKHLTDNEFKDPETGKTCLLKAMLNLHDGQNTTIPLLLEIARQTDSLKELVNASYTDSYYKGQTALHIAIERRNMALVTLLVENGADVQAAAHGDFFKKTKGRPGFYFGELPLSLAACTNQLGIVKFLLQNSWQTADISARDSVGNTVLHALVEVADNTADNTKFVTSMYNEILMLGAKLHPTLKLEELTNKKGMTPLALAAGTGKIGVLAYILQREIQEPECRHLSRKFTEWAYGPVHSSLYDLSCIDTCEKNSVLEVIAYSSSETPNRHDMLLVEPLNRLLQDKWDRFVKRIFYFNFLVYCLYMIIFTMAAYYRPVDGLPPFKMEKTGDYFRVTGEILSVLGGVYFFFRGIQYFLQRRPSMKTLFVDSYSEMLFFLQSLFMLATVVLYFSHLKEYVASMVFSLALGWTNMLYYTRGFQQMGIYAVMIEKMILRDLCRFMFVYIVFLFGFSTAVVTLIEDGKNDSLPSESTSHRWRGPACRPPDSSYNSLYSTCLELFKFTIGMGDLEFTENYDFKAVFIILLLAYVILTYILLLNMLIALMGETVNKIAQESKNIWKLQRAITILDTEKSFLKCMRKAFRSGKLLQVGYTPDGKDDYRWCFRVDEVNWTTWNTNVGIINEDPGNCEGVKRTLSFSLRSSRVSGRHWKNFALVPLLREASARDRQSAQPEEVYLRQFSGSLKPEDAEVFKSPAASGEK
# TEST NAME: Antagonist activity at human TRPV1 expressed in CHOK1 cells assessed as inhibition of capsaicin induced calcium influx pretreated for 6 mins followed by capsaicin addition by Fluo-4/Pluronic F127 probe based FLIPR method
MEASURED QUANTITY: Ki (nM)

>>> assay_value("C[C@H](C(=O)NCc1ccc(C(C)(C)C)cc1SC1CCCCC1)c1ccc(NS(C)(=O)=O)c(F)c1")
6

(I) CCCCSc1cc(C(C)(C)C)ccc1CNC(=O)C(C)c1ccc(NS(C)(=O)=O)c(F)c1 (centres undefined)
(II) CC(C(=O)NCc1ccc(C(C)(C)C)cc1OCc1ccccc1)c1ccc(NS(C)(=O)=O)c(F)c1 (centres undefined)
Out of I and II , name the one with the higher Ki. # respond with the chosen item's label
I
